- System: Calf thymus DNA
- TEST_DESCRIPTION: Binding affinity to calf thymus DNA by UV-vis spectrophotometric method
- Assay type: nucleic-acid assay
- CONDITION_INFO: Bos taurus
OBSERVABLE: log Ks
Give your answer as a number; write no unit.

QUERY: Can you look up log Ks on Calf thymus DNA for Cl.Cl.N=C(N)c1ccc2[nH]c(-c3ccc(Cn4cc(CCCc5cn(Cc6ccc(-c7nc8cc(C(=N)N)ccc8[nH]7)o6)nn5)nn4)o3)nc2c1 ?
RESULT: 6.61

QUERY: Can you look up log Ks on Calf thymus DNA for Clc1ccc2[nH]c(-c3ccc(Cn4cc(CCCc5cn(Cc6ccc(-c7nc8cc(Cl)ccc8[nH]7)o6)nn5)nn4)o3)nc2c1 ?
RESULT: 7.04

QUERY: Can you look up log Ks on Calf thymus DNA for Clc1ccc2[nH]c(-c3ccc(Cn4cc(COc5ccc(OCc6cn(Cc7ccc(-c8nc9cc(Cl)ccc9[nH]8)o7)nn6)cc5)nn4)o3)nc2c1 ?
RESULT: 6.33
